The measurements presented in this section are drawn from patent US20230287145A1.

# subjectOfTest: T1, biotinylated anti-human CD3 IgG (anti-CD3 P035.093) (biotinylated (site not stated))
# T1 construct: IgG format of this reagent is not described further; immobilised on a CAP chip; also called CD3 IgG (P035.093)
# procedureText: SPR; biotinylated anti-CD3 P035.093 IgG on CAP chip, anti-idiotypic IgG at 1 µg/ml; response normalised to anti-human IgG surface and to the unstressed sample; after 14 d at 40 °C pH 6.0
# Method: Flow cell 1 was kept as mock surface. […] Dissociation was monitored for 30 s, the flow rate was set to 5 μl/min. The CAP chip was regenerated by injecting a mix of NaOH and Guadinium-hydrochloride for 120 s, provided in the biotin capture kit. Bulk refractive index differences were corrected by subtracting the response obtained from flow cell 1 (mock surface).
Give Rel. active concentration [%] for every item shown.
# value in %; strip the unit string

Answer with the recorded Rel. active concentration [%] for the binder listed here: Humanized variant H3L3 of anti-idiotypic antibody 4.24.72 (IgG) (antibody, V domains shown, Produced and purified as IgG; also called Mask humanization variant H3L3) VH: QVQLVQSGSELKKPGASVKVSCKASGYTVTDYSMNWVRQAPGQGLEWMGWINTETGEPRYTQGFKGRFVFSLDTSVSTAYLQISSLKAEDTAVYYCAREGDYDVFDYWGQGTLVTVSS VL: DIVMTQSPDSLAVSLGERATINCRASKSVSTSSYSYMHWYQQKPGQPPKLLIKYVSYLESGVPDRFSGSGSGTDFTLTISSLQAEDVAVYYCQQSREFPYTFGQGTKLEIK 97

State its Rel. active concentration [%]: Humanized variant H1L1 of anti-idiotypic antibody 4.24.72 (IgG) (antibody, V domains shown, Produced and purified as IgG; also called Mask humanization variant H1L1) VH: QVQLVQSGSELKKPGASVKVSCKASGYTVTDYSMNWVRQAPGQGLEWMGWINTETGEPRYTDDFKGRFVFSLDTSVSTAYLQISSLKAEDTAVYYCAREGDYDVFDYWGQGTLVTVSS VL: DIVMTQSPDSLAVSLGERATINCRASKSVSTSSYSYMHWYQQKPGQPPKLLIKYVSYLESGVPDRFSGSGSGTDFTLTISSLQAEDVAVYYCQHSREFPYTFGQGTKLEIK 99
